B1: glmS ribozyme (parent)
chain: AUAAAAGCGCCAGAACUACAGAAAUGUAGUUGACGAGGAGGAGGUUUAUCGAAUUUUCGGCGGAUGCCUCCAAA

# Variants of: B1
# assay.notes: self-cleavage kobs at 2500 uM GlcN6P; higher = faster cleavage; RNA array
# conditions.used: with glucosamine-6-phosphate
This sample holds only a part of the variants without activity.
parameter: self-cleavage kobs at 2500 uM GlcN6P (s⁻¹)
Note: unit s⁻¹ is implicit; provide only the numeric part.

Take a look at these entries with their results.
mutation	result.unit	self-cleavage kobs at 2500 uM GlcN6P
A15G U47G G60A C61U C68A	s⁻¹	0.00013
A52U A64G	s⁻¹	0.00023
A64U C71U	s⁻¹	3.79e-05
A39U C67U	s⁻¹	0.00631
U57G	s⁻¹	4.95e-05
C11U A15U U57G C58U C67U	s⁻¹	0.000131
A15U G41C	s⁻¹	2.7e-05
U31C U54C C67U	s⁻¹	0.000804
A15G G44A	s⁻¹	0.000327
C11U C16A U56G	s⁻¹	0.000124

Requested read-out: self-cleavage kobs at 2500 uM GlcN6P. Entry: A39G C58G
7.24e-05

Entry U30G G41U : reported self-cleavage kobs at 2500 uM GlcN6P = ?
0.000149

Reported self-cleavage kobs at 2500 uM GlcN6P, variant G40C U55A : ____
7.26e-05
